We begin with a simple list: items and their reported TGI.
# Test system: BT-549 breast
# ASSAY_METHOD_TEXT: NCI tumour cell line growth inhibition, 48 h

Examples from the recorded data:
COMPOUND: CN(CC(=O)O)Cc1oc(CO)cc(=O)c1O
SYSTEM_TESTED: BT-549 breast
DATA_VALUE: > 100 µM
--
COMPOUND: COC1(c2cccs2)c2ccccc2C(OC)(c2cccs2)c2ccccc21 (centres undefined)
SYSTEM_TESTED: BT-549 breast
DATA_VALUE: > 100 µM
--
COMPOUND: CC(=O)OC(C)(C)CCC(=O)[C@](C)(O)[C@H]1[C@H](O)C[C@@]2(C)[C@@H]3CC=C4C(C)=C(OC5OC(CO)C(O)C(O)C5O)C(=O)C[C@@H]4[C@]3(C)C(=O)C[C@]12C (some centres undefined)
SYSTEM_TESTED: BT-549 breast
DATA_VALUE: > 100 µM
--
COMPOUND: CCOC(=O)C(NC(=O)CC)(Nc1ccc(F)c(Cl)c1)C(F)(F)F (centres undefined)
SYSTEM_TESTED: BT-549 breast
DATA_VALUE: > 100 µM

Query (compound): Clc1ccc(CNc2nccc(-c3cnn4ncccc34)n2)cc1 ; field requested: TGI
14.7 µM

----------
# System: NCI-H226 lung
# ASSAY_METHOD_TEXT: NCI tumour cell line growth inhibition, 48 h
RECORDED_ENDPOINT: TGI

Examples from the recorded data:
COMPOUND: CN[C@@H](C)[C@@H](O)c1ccccc1
SYSTEM_TESTED: NCI-H226 lung
DATA_VALUE: > 100 µM
//
COMPOUND: O=C1C2=C(SCCS2)C(=O)c2c(Sc3ccc(Cl)cc3)c(Sc3ccc(Cl)cc3)c(Sc3ccc(Cl)cc3)c(Sc3ccc(Cl)cc3)c21
SYSTEM_TESTED: NCI-H226 lung
DATA_VALUE: > 100 µM
//
COMPOUND: O=[N+]([O-])c1ccc([N+]2=NC(c3ccccc3)=NN(c3ccccc3)C2)cc1
SYSTEM_TESTED: NCI-H226 lung
DATA_VALUE: > 100 µM

Query (compound): CCN(CC)CCOc1ccc(C(O)(Cc2ccc(OC)cc2)c2ccccc2)cc1 (stereo not given) ; field requested: TGI
77.5 µM

Query (compound): CCCN(CCC)C1CCc2c(ccc3cc[nH]c23)C1 (stereo not given) ; field requested: TGI
> 100 µM

Query (compound): CC1(C)CC([P+](c2ccccc2)(c2ccccc2)c2ccccc2)=NN1 ; field requested: TGI
84.5 µM

Query (compound): COc1nc2c(nc(N)n2C2OCC(O)C(O)C2O)c(=O)n1C (stereo not given) ; field requested: TGI
> 100 µM

Query (compound): C=C1C(=O)OC2/C=C(\CO)CC/C=C(\CO)CC(OC(=O)C(C)C)C12 (stereo not given) ; field requested: TGI
34.2 µM

Query (compound): CC(=O)/C=C1\CC(=O)Nc2ccccc2N1 ; field requested: TGI
> 100 µM

Query (compound): CN(Cc1cnc2nc(N)nc(N)c2n1)c1ccc(C(=O)NC(CCC(=O)NC(CC(P(=O)(O)O)P(=O)(O)O)C(=O)O)C(=O)O)cc1 (stereo not given) ; field requested: TGI
> 100 µM

----------
We begin with a simple list: items and their reported GI50.
# System: OVCAR-3 ovarian
# ASSAY_METHOD_TEXT: NCI tumour cell line growth inhibition, 48 h

Examples from the recorded data:
MOLECULE: CC(=O)OC(C)c1cc2c(s1)C(=O)c1c(C(C)OC(C)=O)csc1C2=O (stereo not given)
DATA_VALUE: 278 nM
--
MOLECULE: CC1(C)CC([P+](c2ccccc2)(c2ccccc2)c2ccccc2)=NN1
DATA_VALUE: 2180 nM
--
MOLECULE: NCCCN1CCN(CCCNc2nc3ccccc3c3[nH]c4ccccc4c23)CC1
DATA_VALUE: 659 nM
--
MOLECULE: COc1cc(C2CC(=O)Nc3c2ccc2ccccc32)cc(Br)c1OC (stereo not given)
DATA_VALUE: 309 nM

Now look at this one.
Item: N#Cc1nc2c(S(=O)(=O)c3ccccc3)c(N)n(Cc3ccc(Cl)cc3)c2nc1C#N Test system: OVCAR-3 ovarian Read-out: GI50 Value: ?
12000 nM
